Below, each of the compounds is paired with its reported growth value.
tested on: BT-549 breast; assay: NCI-60 one-dose screen, 48 h (100 = growth as untreated, 0 = no growth, -100 = all killed); conditions: 10 µM unless noted
Compounds without any hit were thinned out: in the full panel of roughly 83,000, 20% have a hit.
Answer with a number only, understood to be in %.

CCCCCCCCCCCCNC(=S)N/N=C/c1ccc(Cl)c(Cl)c1 : 120

Provide measured growth value, entry: `O=c1[nH]c2ccccc2cc1-c1nnc(Cc2ccccc2)o1`
48.9

Provide measured growth value, entry: COC1=CC(c2ccc[nH]2)=N/C1=C\c1[nH]c(C)c(C(=O)CCC(=O)Oc2ccc3c(c2)CCC2C3CC[C@]3(C)[C@@H](O)CC[C@@H]23)c1C (some centres undefined)
27

Provide measured growth value, entry: Cc1ccc(S(=O)(=O)OC2COCOC2C(OS(=O)(=O)c2ccc(C)cc2)C2OCOCC2OS(=O)(=O)c2ccc(C)cc2)cc1 (centres undefined)
98.2
